- TESTED_ON: MAO-B (Homo sapiens, UniProt P27338)
- Sequence (P27338 whole entry): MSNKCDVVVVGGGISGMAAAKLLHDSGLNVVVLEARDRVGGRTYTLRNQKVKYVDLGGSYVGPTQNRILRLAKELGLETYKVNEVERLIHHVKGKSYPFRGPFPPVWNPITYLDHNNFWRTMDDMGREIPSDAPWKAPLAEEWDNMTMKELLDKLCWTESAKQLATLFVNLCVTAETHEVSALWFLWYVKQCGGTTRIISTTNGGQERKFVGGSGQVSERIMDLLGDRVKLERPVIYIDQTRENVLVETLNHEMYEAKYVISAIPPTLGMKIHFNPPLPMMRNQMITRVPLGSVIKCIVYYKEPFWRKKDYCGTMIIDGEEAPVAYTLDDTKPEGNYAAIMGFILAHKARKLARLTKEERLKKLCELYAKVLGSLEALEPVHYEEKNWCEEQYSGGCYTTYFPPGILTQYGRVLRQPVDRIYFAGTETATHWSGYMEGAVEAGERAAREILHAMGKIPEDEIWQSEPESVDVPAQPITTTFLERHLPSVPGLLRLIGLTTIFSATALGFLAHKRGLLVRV
- EXPERIMENT_SUMMARY: hMAO-B inhibition, spectrophotometric assay
- CONDITION_INFO: IC50 MAO-A divided by IC50 MAO-B
Would you kindly list Selectivity index for inhibition of MAO-B for each of these molecules?

Prompt: What value of Selectivity index for inhibition of MAO-B has been recorded for this entry: COc1ccc2c(c1)O/C(=C\c1ccccc1OC)C2=O [Compound 1x]
Response: >168

Prompt: What value of Selectivity index for inhibition of MAO-B has been recorded for this entry: COc1ccc2c(c1)O/C(=C\c1ccc(O)cc1)C2=O [Compound 1t]
Response: >75

Prompt: What value of Selectivity index for inhibition of MAO-B has been recorded for this entry: O=C1/C(=C/c2cc(O)ccc2O)Oc2cc(O)ccc21 [Compound 1f]
Response: 2.21

Prompt: What value of Selectivity index for inhibition of MAO-B has been recorded for this entry: COc1cccc(/C=C2\Oc3cc(O)ccc3C2=O)c1OC [Compound 1l]
Response: >28

Prompt: What value of Selectivity index for inhibition of MAO-B has been recorded for this entry: COc1cccc(/C=C2\Oc3cc(O)ccc3C2=O)c1 [Compound 1j]
Response: >41

Prompt: What value of Selectivity index for inhibition of MAO-B has been recorded for this entry: COc1ccc(/C=C2\Oc3cc(O)ccc3C2=O)c(OC)c1OC [Compound 1p]
Response: >583
